System: Fibroblast
Experiment: Multiplex assay against human fibroblast
Format: toxicity, cell-based
Conditions: 48 h, 10 µM, compound concentration 10 uM, replicate 2
Label rule, in plain words: Total Cell Count of 100 and up is met, under 100 is not met.

Solved entries (count: 5):
Cc1c(P(=S)(c2ccccc2)c2ccccc2)n2ccccc2[n+]1C/C=C/c1ccccc1.[Br-]	not met
Cl.NC[C@@H]1O[C@H](C23CC4CC(CC(C4)C2)C3)Cc2c1ccc(O)c2O	met
CC(/C=C1\SC(=S)N(CCCC(=O)Nc2ccc(C(=O)O)c(O)c2)C1=O)=C\c1ccccc1	not met
CC(C)[C@H](CO)Nc1nc(Nc2cccc(Cl)c2)c2ncn(C(C)C)c2n1	met
Cc1ccc(S(=O)(=O)NC2c3ccccc3Oc3ccccc32)cc1	not met

Kindly determine if Total Cell Count recorded for `N#CCNC(=O)c1ccc(-c2ccnc(Nc3ccc(N4CCOCC4)cc3)n2)cc1` is above or exactly 100. met

Kindly determine if Total Cell Count recorded for CCCCCNC(=N)N/N=C/c1c[nH]c2ccc(OC)cc12.O=C(O)/C=C\C(=O)O [TEGASEROD MALEATE] is above or exactly 100. met

Kindly determine if Total Cell Count recorded for `CCCCN(CC)c1nc(C)nc2c1c(C)cn2-c1c(C)cc(C)cc1C.Cl` is above or exactly 100. met

Kindly determine if Total Cell Count recorded for CN1C(=O)[C@@H](NC(=O)c2cc3ccccc3[nH]2)N=C(c2ccccc2)c2ccccc21 [DEVAZEPIDE] is above or exactly 100. not met

* * *

Test system: Fibroblast
Test: Multiplex assay against human fibroblast
Type: toxicity, cell-based
Settings: 24 h, 1 µM, compound concentration 1 uM, replicate 2
MEASUREMENT_TYPE: Total Cell Count

Cc1c(P(=S)(c2ccccc2)c2ccccc2)n2ccccc2[n+]1C/C=C/c1ccccc1.[Br-]	124
Cc1ccc(NC(=O)Nc2cc(C(F)(F)F)ccc2F)cc1Nc1ccc2c(c1)NC(=O)/C2=C\c1ccc[nH]1	59
CN(c1cc(C(F)(F)F)nc(OCCC(=O)O)n1)c1cccc2c1CCC2	68
Cc1c(Nc2ccc(S(=O)(=O)N3CCN(C)CC3)cc2F)nc2ccc(-c3cnn(C4CC4)c3)cn2c1=O	91
CC(C)[C@H](CO)Nc1nc(Nc2cccc(Cl)c2)c2ncn(C(C)C)c2n1	157
CC[C@H](Nc1ncnc2[nH]cnc12)c1nc2cccc(F)c2c(=O)n1-c1ccccc1	60
CN1C(=O)[C@@H](NC(=O)c2cc3ccccc3[nH]2)N=C(c2ccccc2)c2ccccc21 [DEVAZEPIDE]	79

Lab note: need Total Cell Count for `NC(=O)c1ccc2nc(-c3ccc(C4(N)CCC4)cc3)c(-c3ccccc3)n2n1` on Fibroblast, anyone have it? 128

* * *

Kindly supply the reported Total Cell Count values for the records listed here.
Test system: Fibroblast
Experiment: Multiplex assay against human fibroblast
Format: toxicity, cell-based
Details: 48 h, 1 µM, compound concentration 1 uM, replicate 2

Reference set (3 entries):
CCCc1cc(C)[nH]c(=O)c1CNC(=O)c1cc(-c2ccc(N3CCN(C(C)C)CC3)nc2)cc2c1cnn2C(C)C	120
CN(c1cc(C(F)(F)F)nc(OCCC(=O)O)n1)c1cccc2c1CCC2	80
CCCCN(CC)c1nc(C)nc2c1c(C)cn2-c1c(C)cc(C)cc1C.Cl	93

For the compound shown here, `CC(C)C[C@H](NC(=O)[C@H](Cc1ccccc1)NC(=O)CNC(=O)CNC(=O)[C@@H](N)Cc1ccc(O)cc1)C(=O)O` , give the reported Total Cell Count. 81
